Assay: qHTS assay for small molecule agonists of the antioxidant response element (ARE) signaling pathway (AID 743202)
Settings: HepG2 ARE-bla reporter, beta-lactamase FRET, 16 h; series mostly up to 73.3 µM
Description: U.S. Tox21 Program National Center for Advancing Translational Sciences [NCATS] NIH Chemical Genomics Center [NCGC] U.S. Environmental Protection Agency [EPA] National Institutes of Environmental Health Sciences [NIEHS] National Toxicology Program [NTP] U.S. Food and Drug Administration [FDA] […] The activation of the report gene under culture conditions can be detected by fluorescence intensity. […]
Records with an inconclusive call do not appear. Activity calls are given as the source filed them. Calls follow the shape of the dose curve; as a rule, active = well fitted activation curve with a large enough effect in the signal ratio in the repeat runs (not every such curve was filed as active); inconclusive = weak or mixed curves, or effect the other way; inactive = no such curve, though single readings can be large or run the other way; the % refers to the signal ratio.
# output must be one of Y (active), N (inactive)

Worked examples, 3 molecules total:
O=[N+]([O-])c1c2ccccc2cc2ccccc12 ... Y
CC(=O)c1cc(C(C)(C)C)cc2c1CCC2(C)C ... N
NNC(=O)c1ccccc1 ... N

Attention now turns to another entry.
Outcome logged for `Cc1c(Cl)c(=O)oc2cc(OP(=O)(OCCCl)OCCCl)ccc12` in this assay:
N
